Target: LRRK2(G2019S mutation, GST-LRRK2(amino acids 970-2527)) (Homo sapiens, UniProt Q5S007, G2019S)
Construct: GST-LRRK2(amino acids 970-2527); GST (N); purchased Life Technologies Corporation
Sequence (Q5S007 970-2527 G2019S): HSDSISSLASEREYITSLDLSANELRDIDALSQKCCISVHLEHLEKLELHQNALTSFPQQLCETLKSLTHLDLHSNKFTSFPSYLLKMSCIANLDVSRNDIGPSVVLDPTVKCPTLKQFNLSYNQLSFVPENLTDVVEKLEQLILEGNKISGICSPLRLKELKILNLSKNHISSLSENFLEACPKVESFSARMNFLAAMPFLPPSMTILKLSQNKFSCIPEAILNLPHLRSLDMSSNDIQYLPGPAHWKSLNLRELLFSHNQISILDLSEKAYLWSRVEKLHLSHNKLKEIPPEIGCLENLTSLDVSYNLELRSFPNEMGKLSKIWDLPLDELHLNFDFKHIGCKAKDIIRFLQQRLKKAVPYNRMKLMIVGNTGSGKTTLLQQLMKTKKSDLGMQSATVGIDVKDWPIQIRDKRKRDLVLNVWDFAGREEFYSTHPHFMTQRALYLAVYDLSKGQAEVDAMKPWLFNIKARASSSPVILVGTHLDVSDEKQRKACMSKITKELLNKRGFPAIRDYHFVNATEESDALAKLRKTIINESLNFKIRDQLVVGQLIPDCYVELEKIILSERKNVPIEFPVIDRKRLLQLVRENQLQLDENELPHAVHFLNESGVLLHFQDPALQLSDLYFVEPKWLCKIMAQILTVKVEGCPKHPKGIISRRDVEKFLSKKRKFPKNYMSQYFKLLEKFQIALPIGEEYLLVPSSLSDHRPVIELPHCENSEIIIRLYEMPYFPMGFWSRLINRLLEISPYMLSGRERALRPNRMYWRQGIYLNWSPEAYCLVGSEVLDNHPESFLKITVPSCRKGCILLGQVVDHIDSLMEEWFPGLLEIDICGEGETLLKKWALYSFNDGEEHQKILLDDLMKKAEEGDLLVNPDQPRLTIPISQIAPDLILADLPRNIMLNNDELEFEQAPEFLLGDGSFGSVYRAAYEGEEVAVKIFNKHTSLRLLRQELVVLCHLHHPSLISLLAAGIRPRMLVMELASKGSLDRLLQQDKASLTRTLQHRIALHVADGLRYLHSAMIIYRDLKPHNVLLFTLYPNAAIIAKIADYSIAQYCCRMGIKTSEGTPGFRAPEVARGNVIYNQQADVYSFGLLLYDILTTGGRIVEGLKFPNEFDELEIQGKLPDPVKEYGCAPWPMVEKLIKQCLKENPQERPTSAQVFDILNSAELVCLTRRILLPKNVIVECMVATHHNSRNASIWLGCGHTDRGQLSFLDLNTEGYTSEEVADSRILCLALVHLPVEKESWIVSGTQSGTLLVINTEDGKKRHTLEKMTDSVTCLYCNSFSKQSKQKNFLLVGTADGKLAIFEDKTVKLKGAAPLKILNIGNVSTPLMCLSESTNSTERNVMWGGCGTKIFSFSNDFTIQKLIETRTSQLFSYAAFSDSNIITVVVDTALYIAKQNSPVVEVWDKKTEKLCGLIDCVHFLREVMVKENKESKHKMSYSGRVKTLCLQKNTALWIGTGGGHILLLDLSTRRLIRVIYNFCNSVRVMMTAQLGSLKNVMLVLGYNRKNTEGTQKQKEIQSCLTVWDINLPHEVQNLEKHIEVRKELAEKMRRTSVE
Assay: LRRK2 Km ATP LanthaScreen Assay
Type: biochemical
Conditions: Km ATP LanthaScreen Assay; LRRK2 G2019S; mean IC50 values; Examples 185-215; read-out: LRRK2 IC5)
// returns NO unless IC50 is strictly below 8 nM, in which case YES

Examples with answers:
- Compound: "Cc1ncc(N2CCN(c3cc(-c4n[nH]c5ccc(OC(C)C)cc45)ccn3)CC2)s1"
  Label: "NO"
- Compound: "CC(C)Oc1ccc2[nH]nc(-c3ccnc(N4CC(F)(F)C4)c3)c2c1"
  Label: "NO"
- Compound: "CC(C)Oc1ccc2[nH]nc(-c3ccnc(N4CCCC(c5nncn5C)C4)c3)c2c1 (centres unmarked)"
  Label: "YES"
- Compound: "CC(C)Oc1ccc2[nH]nc(-c3ccnc(N4CCCN(c5ncccn5)CC4)c3)c2c1"
  Label: "NO"
- Compound: "CC(C)Oc1ccc2[nH]nc(-c3ccnc(N4CCN(c5ncc6ccccc6n5)CC4)c3)c2c1"
  Label: "NO"
- Compound: "CC(C)Oc1ccc2[nH]nc(-c3ccnc(N4CCCC(c5ccncn5)C4)c3)c2c1 (centres unmarked)"
  Label: "YES"

### Prompt Criterion: IC50 strictly below 8 nM. Is it met by CCc1nnc2n1CCN(c1cc(-c3n[nH]c4ccc(OC(C)C)cc34)ccn1)C2 ?
### Response YES

### Prompt Report whether reported IC50 is lower than 8 nM (strictly) for Cc1nc2c(o1)CN(c1cc(-c3n[nH]c4ccc(OC(C)C)cc34)ccn1)CC2
### Response NO

### Prompt I wonder whether CC(C)Oc1ccc2[nH]nc(-c3ccnc(N4CCN(c5ccccn5)CC4)c3)c2c1 has IC50 below 8 nM. Can you tell?
### Response NO

### Prompt Is 8 nM strictly greater than the compound's reported IC50? compound: Cc1nnc(CN(C)c2cc(-c3n[nH]c4ccc(OC(C)C)cc34)ccn2)o1
### Response NO

### Prompt Lab log: compare recorded IC50 with 8 nM; is it strictly lower for CC(C)Oc1ccc2[nH]nc(-c3ccnc(N4CC[S+]([O-])CC4)c3)c2c1 ?
### Response YES

### Prompt # check: IC50 < 8 nM for CC(C)Oc1ccc2[nH]nc(-c3ccnc(N4CCn5ccnc5C4)c3)c2c1
### Response NO

### Prompt Check if IC50 falls below 8 nM for CC(C)Oc1ccc2[nH]nc(-c3ccnc(N4CCC(n5cnnc5)CC4)c3)c2c1 .
### Response YES

Data provenance is patent US9440952B2.
